# target_under_test: MEK1 (Homo sapiens, UniProt Q02750)
# Construct: N-terminal His-tagged recombinant human full length protein, expressed in insect cells; His (N); purchased Invitrogen PV3303; host or cells: insect cells
# Sequence (Q02750 whole entry): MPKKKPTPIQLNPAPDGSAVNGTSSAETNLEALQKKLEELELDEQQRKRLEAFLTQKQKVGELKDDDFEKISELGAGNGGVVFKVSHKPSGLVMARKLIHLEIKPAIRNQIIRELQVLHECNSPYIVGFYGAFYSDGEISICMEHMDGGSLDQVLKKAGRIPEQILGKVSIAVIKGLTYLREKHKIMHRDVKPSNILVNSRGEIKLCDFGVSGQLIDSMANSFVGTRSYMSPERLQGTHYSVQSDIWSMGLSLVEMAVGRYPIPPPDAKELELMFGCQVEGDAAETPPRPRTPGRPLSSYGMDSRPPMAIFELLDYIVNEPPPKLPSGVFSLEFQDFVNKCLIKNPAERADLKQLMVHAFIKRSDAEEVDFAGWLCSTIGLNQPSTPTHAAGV
# experimental_details: MEK Inhibition Assay (Biological Example 1a, 33P-ATP, P81 filter-binding)
# condition_notes: Biological Example 1a (used for compounds 2 and 6); read-out: Assay 1: biochemical MEK IC50
pIC50: −log10 of the molar value.
observation_type: pIC50

A: COc1ccc2c(C(=O)NOCCO)c(Nc3ccc(I)cc3F)sc2n1
B: CSc1ccc(Nc2sc3ncccc3c2C(=O)NOCCO)c(F)c1
// query Choose between A and B : whose measured pIC50 value is numerically larger? Reply with the label of the item you choose.
// result B

----------
# experimental_details: S9 Stability Assay, human liver S9 fraction
# Type: in vitro ADME
# condition_notes: human liver S9 fraction, pH 7.4; human liver S9; unit min printed in b472 and Table 1, not in this table; read-out: Assay 4: human liver S9 half-life
observation_type: half-life at 1 μM (min)

Sample answers from the record:
                                        smi  data_value
0  Cc1ccc2c(C(=O)NOCCO)c(Nc3ccc(I)cc3F)sc2n1          54
1  COc1cnc2sc(Nc3ccc(I)cc3F)c(C(=O)NOCCO)c2c1          68

P: CSc1ccc(Nc2sc3ncccc3c2C(=O)NOCCO)c(F)c1
Q: C#Cc1ccc(Nc2sc3ncccc3c2C(=O)NOCCO)c(F)c1
// query Choose between P and Q : whose measured half-life at 1 μM value is numerically larger? Reply with the label of the item you choose.
// result Q
(Q: 29 min, P: 16 min)

----------
# experimental_details: S9 Stability Assay, human liver S9 fraction
# Format: in vitro ADME
# condition_notes: human, human liver S9 fraction, pH 7.4; read-out: Assay 5: human liver S9 intrinsic clearance value (μL/min/mg protein)
observation_type: microsomal CLint at 1 μM (µL/min/mg)

P: C#Cc1ccc(Nc2sc3ncccc3c2C(=O)NOCCO)c(F)c1 [Ex. 1]
Q: Cc1ccc2c(C(=O)NOCCO)c(Nc3ccc(I)cc3F)sc2n1 [Ex. 5]
// query Choose between P and Q : whose measured microsomal CLint at 1 μM value is numerically larger? Reply with the label of the item you choose.
// result P
(P: 11.8 µL/min/mg, Q: 6.36 µL/min/mg)

P: CSc1ccc(Nc2sc3ncccc3c2C(=O)NOCCO)c(F)c1 [Ex. 2]
Q: COc1cnc2sc(Nc3ccc(I)cc3F)c(C(=O)NOCCO)c2c1 [Ex. 7]
// query I'm curious, which of these has a smaller microsomal CLint at 1 μM number: P or Q ? Reply with the label of the item you choose.
// result Q
(Q: 5.1 µL/min/mg, P: 21.2 µL/min/mg)

----------
# experimental_details: S9 Stability Assay, human liver S9 fraction
# Assay type: in vitro ADME
# condition_notes: pH 7.4; Table 1; human liver S9 fraction; read-out: CLint (μL/min/mg protein)
observation_type: microsomal CLint at 1 μM (µL/min/mg)

a: O=C(NOCCO)c1c(Nc2ccc(I)cc2F)sc2ncccc12 [Ex. 3]
b: O=C(NOCCO)c1c(Nc2ccc(I)cc2F)sc2ncc(F)cc12 [Ex. 8]
// query Choose between a and b : whose measured microsomal CLint at 1 μM value is numerically larger? Reply with the label of the item you choose.
// result b

----------
Lab note: IC50 readings collected with MAP2K1 (MEK1) (Homo sapiens) for the following molecules.
Sequence (Q02750 whole entry): as above
observation_type: IC50 (nM)

1: Cc1ccc2c(C(=O)NOCCO)c(Nc3ccc(I)cc3F)sc2n1
2: C#Cc1ccc(Nc2sc3ncccc3c2C(=O)NOCCO)c(F)c1
// query I'm curious, which of these has a smaller IC50 number: 1 or 2 ? Reply with the label of the item you choose.
// result 1
(1: 256 nM, 2: 1030 nM)
